The reported numbers originate from patent US20030119727A1.

# STUDY TARGET: T1, recombinant human Factor VIIa (human), P08709
# T1 chain 1: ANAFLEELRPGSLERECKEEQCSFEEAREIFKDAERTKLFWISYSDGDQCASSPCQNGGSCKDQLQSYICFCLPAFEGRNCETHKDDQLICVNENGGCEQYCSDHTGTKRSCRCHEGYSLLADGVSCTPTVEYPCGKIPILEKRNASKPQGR
# T1 chain 2: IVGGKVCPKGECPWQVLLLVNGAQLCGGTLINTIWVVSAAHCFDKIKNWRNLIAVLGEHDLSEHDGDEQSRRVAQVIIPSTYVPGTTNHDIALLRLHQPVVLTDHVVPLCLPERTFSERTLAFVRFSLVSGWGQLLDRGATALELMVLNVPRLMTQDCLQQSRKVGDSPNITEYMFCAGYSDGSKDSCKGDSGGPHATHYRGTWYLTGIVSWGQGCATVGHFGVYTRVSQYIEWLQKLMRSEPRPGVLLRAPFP
# PROCEDURE DETAILS: competition ELISA
# MEASUREMENT CONTEXT: modification not given
MEASUREMENT NAME: log10 of IC50 (log10 of the value in nM)
Recorded IC50 (log10, nM)

ALCDEPRVDRWYCQFVEG [TF120] :: 2.04

According to the records, this binder ALCDDPRVNRWYCQFVEG [TF97] displays log10 of IC50 of 3.08

According to the records, this binder ALCDDPRVDRWYCQAVEG [TF115] displays log10 of IC50 of 4.30

According to the records, this binder ALCDDPRIDRWYCQFVEG [TF121] displays log10 of IC50 of 0.48

According to the records, this binder ALCDDPEVDRWYCQFVEG [TF96] displays log10 of IC50 of 2.41

According to the records, this binder LCDDPRVDRWYCQFVEG [TF77] displays log10 of IC50 of 2.39
